Recorded values, source ChEMBL document CHEMBL3988442.

# Assayed target: Aspartate--tRNA(Asp/Asn) ligase (Mycobacterium tuberculosis (strain ATCC 25618 / H37Rv)) (UniProt P9WFW3); also: in the data most compounds retested in dose-response had high values
# Sequence (whole entry): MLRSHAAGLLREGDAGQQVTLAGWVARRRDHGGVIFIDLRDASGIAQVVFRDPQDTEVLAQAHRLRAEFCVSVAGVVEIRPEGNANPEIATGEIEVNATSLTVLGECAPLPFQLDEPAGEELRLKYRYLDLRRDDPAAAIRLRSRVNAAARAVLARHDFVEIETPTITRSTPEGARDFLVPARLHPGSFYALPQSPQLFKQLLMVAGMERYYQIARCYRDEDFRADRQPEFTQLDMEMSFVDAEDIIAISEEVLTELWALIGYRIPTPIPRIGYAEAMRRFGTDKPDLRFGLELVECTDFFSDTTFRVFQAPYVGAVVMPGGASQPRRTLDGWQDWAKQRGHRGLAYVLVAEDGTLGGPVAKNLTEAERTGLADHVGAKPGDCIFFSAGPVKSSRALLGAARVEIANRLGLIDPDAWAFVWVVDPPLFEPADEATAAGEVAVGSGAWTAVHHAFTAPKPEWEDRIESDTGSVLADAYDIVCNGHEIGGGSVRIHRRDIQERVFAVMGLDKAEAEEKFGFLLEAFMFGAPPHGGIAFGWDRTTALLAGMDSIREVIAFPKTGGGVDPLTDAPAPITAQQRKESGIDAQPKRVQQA
# Protocol description: Assay for Asp RNA synthetase-1 from Mycobacterium tuberculosis
# Type: functional
# Set-up: scale not given: direction of the effect not stated beside the values
# Assay context: 30 µM

Compound: O=S(=O)(C1CC1)N1CCOCC2(CCN(c3ccccn3)C2)C1 (configuration not stated)
Percent Effect / %: 8.28

Compound: CCOC1CCCN(C(=O)c2cnc3c(cnn3C3CCCC3)c2)C1 (configuration not stated)
Percent Effect / %: 2.51

Compound: CC(C)c1nn(C)c(N(C)C)c1CNCc1cccc(CN(C)C)c1
Percent Effect / %: 2.36

Compound: O=C(c1ccco1)N1CCC2(CCC(=O)N2Cc2cccc(F)c2)CC1
Percent Effect / %: 1.32

Compound: O=C(Nc1ccccn1)C1=NN(c2ccccc2)C(=O)CN1
Percent Effect / %: 0.657

Compound: CCc1cnc(CN2CCCC2c2noc(C3CC3)n2)o1 (configuration not stated)
Percent Effect / %: 2.19

Compound: O=c1cc(CN2CCCC(CCc3c(F)cccc3F)C2)[nH]c(=O)[nH]1 (configuration not stated)
Percent Effect / %: 3.07

Compound: Cn1cc(C[C@H]2[C@@H](O)CCN2C(=O)C2CC=CC2)cn1
Percent Effect / %: 7.16

Compound: Cn1cc(N2CC3(CCN(Cc4cccs4)CC3)OCC2=O)cn1
Percent Effect / %: -0.729

Compound: COc1cccc(-n2nnc(C(=O)N3CCCC3)c2C)c1
Percent Effect / %: -2.63

Compound: CCCn1[nH]cc/c1=N\C(=O)CN1CCCC1c1c(C)nn(C)c1C (configuration not stated)
Percent Effect / %: -0.979

Compound: CCc1ccc(C2CCCCCN2Cc2nc(CCOC)no2)o1 (configuration not stated)
Percent Effect / %: 10.6

Compound: Cc1ccc(CN2CCOC3(COCCN(CCN(C)C)C3)C2)o1 (configuration not stated)
Percent Effect / %: 5.87

Compound: CCC(=O)N1CCC(c2nnc(Cn3cncn3)n2C2CC2)CC1
Percent Effect / %: -3.04

Compound: CC(NC(=O)CCn1cncn1)c1nnc2n1CCCCC2 (configuration not stated)
Percent Effect / %: -0.486

Compound: Cc1cc(C)n(C2CCCN(C(=O)c3c(C)c(C)n[nH]c3=O)C2)n1 (configuration not stated)
Percent Effect / %: -2.4

Compound: Cc1cc2c(cc1C(=O)N1CC[C@H](CO)[C@@H](O)C1)OCCO2
Percent Effect / %: -0.915

Compound: CN(CC(=O)N(C)C1CCCCC1)C1CCc2ccccc21 (configuration not stated)
Percent Effect / %: 0.433

Compound: O=C(CN1CCC(c2ccnn2CCO)CC1)NCC1CC1
Percent Effect / %: -6.54

Compound: CCOc1ncccc1NC(=O)NC1CCCN(c2ncccn2)C1 (configuration not stated)
Percent Effect / %: 0.879

Compound: CCN1CCN(C2CCN(Cc3nnc(C(C)(C)C)o3)CC2)C1=O
Percent Effect / %: -1.73

Compound: O=C(CC1CCCC1)NCCn1ccc(-c2ccncc2)n1
Percent Effect / %: 7.45

Compound: COc1c(CNCC(c2cccc(F)c2)N(C)C)c(C(C)C)nn1C (configuration not stated)
Percent Effect / %: -3.2

Compound: CC(=O)NCCNC(=O)c1sc(-c2ccc(Cl)s2)nc1C
Percent Effect / %: 7.28

Compound: N#Cc1cc(NC(=O)C2CC=CC2)ccc1N1CCC(O)CC1
Percent Effect / %: -1.55

Compound: O=C(NCCOc1ccc2c(c1)OCO2)N1CCC1
Percent Effect / %: 0.81

Compound: CC(O)CN1CCN(C(=O)c2ccc(Cn3cccc3)cc2)CC1 (configuration not stated)
Percent Effect / %: 11

Compound: CC(C)n1ccnc1C1CCN(Cc2ccc(Cl)s2)CC1
Percent Effect / %: 4.1

Compound: CC(C)CC(CNC(=O)NCc1cc[nH]n1)N1CCOCC1 (configuration not stated)
Percent Effect / %: -6.68

Compound: CC(C)(C)c1n[nH]c(C2CN(C(=O)c3ccsc3)CCO2)n1 (configuration not stated)
Percent Effect / %: -2.97

Compound: COc1ccc(C(=O)NCC(c2cccn2C)N2CCCC2)c(OC)c1 (configuration not stated)
Percent Effect / %: -4.85

Compound: Cc1cnn(CC2CCCN2CC(=O)Nc2nc(C)cs2)c1 (configuration not stated)
Percent Effect / %: 1.62

Compound: CCN(Cc1nc2c(cnn2C)c(=O)[nH]1)c1cccc(Cl)c1
Percent Effect / %: 0.461

Compound: CCN1CCO[C@]2(CCC[C@H]2COCc2csc(C)n2)C1
Percent Effect / %: -0.869

Compound: CCOCCC(=O)N1CCCN(Cc2csc(CC)n2)CC1
Percent Effect / %: -0.742

Compound: COc1ccc(CNC(=O)Nc2cccnc2N2CCCC2)cc1O
Percent Effect / %: 0.235

Compound: Cn1cc(NC(=O)N2CCC(c3ccccc3)CC2)ccc1=O
Percent Effect / %: 55

Compound: O=C(NCC1CC1)C1CN(C(=O)c2cccnc2)CC12CCOCC2 (configuration not stated)
Percent Effect / %: -2.58

Compound: Cc1cnn(C2CCCN(C(=O)CCCNc3ncccn3)C2)c1 (configuration not stated)
Percent Effect / %: 1.18

Compound: Cn1ccnc1CN1CCN(CCOc2ccccc2C#N)CC1
Percent Effect / %: -0.506

Compound: CN1CCN(Cc2cn3c(n2)CN(C(=O)N2CCOCC2)CC3)CC1
Percent Effect / %: 5.44

Compound: CC(C)(C)NC(=O)C1CSCN1S(=O)(=O)c1cccc(F)c1 (configuration not stated)
Percent Effect / %: 10.2

* * *

# Assayed target: Shiga toxin 2 (Escherichia coli O157:H7) (UniProt P09385+P09386)
# Protocol description: E. coli 0.157:H7 Shiga Toxin SOP - stx2 screening assay
# Assay type: functional
# Parameters: scale not given: direction of the effect not stated beside the values
# Assay context: 30 µM

Molecule: Cc1cnc(CNC(=O)NCc2cccnc2N(C)C)s1
Percent Effect / %: -0.447
//
Molecule: Cc1ccc(OCCC(=O)NC2CCc3nccn3C2)cc1 (stereo not given)
Percent Effect / %: -18
//
Molecule: COc1cc(C)ccc1OCCC(=O)N1CCCC1Cn1cccn1 (stereo not given)
Percent Effect / %: 12.8
//
Molecule: CCOC1CCCN(C(=O)c2cnc3c(cnn3C3CCCC3)c2)C1 (stereo not given)
Percent Effect / %: 15.6
//
Molecule: c1ccc(CN2CCc3ncnc(-c4ccsc4)c3CC2)nc1
Percent Effect / %: -6.45
//
Molecule: N#Cc1cccc(S(=O)(=O)NC2CCN(Cc3ccccc3)C2=O)c1 (stereo not given)
Percent Effect / %: 8.07
//
Molecule: Cc1cnn(CC(C)NCc2nc(-c3ccco3)no2)c1 (stereo not given)
Percent Effect / %: 2.91
//
Molecule: CC(=O)N1CCN(Cc2csc(-c3cnn(C)c3)n2)CC1
Percent Effect / %: -1.47
//
Molecule: Cc1ccn(-c2ccccc2NCc2ncc[nH]2)n1
Percent Effect / %: -13.8
//
Molecule: O=C(NCCS(=O)(=O)N1CCc2ccccc21)c1c(O)cc(F)cc1F
Percent Effect / %: 23

* * *

# Assayed target: Shiga toxin 2 (Escherichia coli O157:H7) (UniProt P09385+P09386)
# Protocol description: E. coli 0.157:H7 Shiga Toxin SOP - stx2 screening assay
# Assay type: functional
# Parameters: scale not given: direction of the effect not stated beside the values
# Assay context: 30 µM
In this section, each of the compounds is paired with its reported Percent Effect.

Compound: CCOC(=O)NC(CNC(=O)c1ncccn1)CC(C)C (configuration not stated)
Assayed target: Shiga toxin 2 (Escherichia coli O157:H7) (UniProt P09385+P09386)
Measure unit: %
Percent Effect: 4.71

Compound: c1cnc(N2CCC3(CCN(CC4CC4)CC3)CC2)nc1
Assayed target: Shiga toxin 2 (Escherichia coli O157:H7) (UniProt P09385+P09386)
Measure unit: %
Percent Effect: 6.17

Compound: COc1ccc(S(=O)(=O)NCc2cccnc2N(C)C)cc1F
Assayed target: Shiga toxin 2 (Escherichia coli O157:H7) (UniProt P09385+P09386)
Measure unit: %
Percent Effect: -9.13

Compound: O=C(c1ccccn1)N1CCN(c2ccc(-c3cccnc3)nn2)CC1
Assayed target: Shiga toxin 2 (Escherichia coli O157:H7) (UniProt P09385+P09386)
Measure unit: %
Percent Effect: -48.3

Compound: Cc1cnc(CN(C)C2CCN(Cc3nc4ccccc4n3C)C2)o1 (configuration not stated)
Assayed target: Shiga toxin 2 (Escherichia coli O157:H7) (UniProt P09385+P09386)
Measure unit: %
Percent Effect: -27.3

Compound: O=C1NCCN1C1CCCN(Cc2coc(-c3ccc(F)cc3)n2)C1 (configuration not stated)
Assayed target: Shiga toxin 2 (Escherichia coli O157:H7) (UniProt P09385+P09386)
Measure unit: %
Percent Effect: -27.1

Compound: Cc1nc(Nc2nccs2)cc(C2CCCN2C2CCOCC2)n1 (configuration not stated)
Assayed target: Shiga toxin 2 (Escherichia coli O157:H7) (UniProt P09385+P09386)
Measure unit: %
Percent Effect: 3.58
